From: patent US20240408169A1

- System: NCI-H1048 cells
- experiment_notes: MTT proliferation assay, NCI-H1048;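 also: Dose-response in 96-well plates over 8 or 10 concentration points, with exposure spanning 3-4 cell doublings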
- Format: cell-based
- condition_context: 5 days compound exposure, 1:3 serial dilution starting at 10 μM
*1 amine or outer side, *2 acyl side, *3 side chain or, on linkers, in order; H or OH if unused. Where a SMILES comes first, the peptide text is derived from it. Bridges are numbered along the chain shown (N, C = ends). [ ]: non-standard residue; d: D form. The star is where a group is joined. X38 = CN([C@@H](Cc1cc(Cl)ccc1-c1ccc(N2C[C@H]3COC[C@H]3C2)cc1)C(=O)[*:2])[*:1]; X1 = C[C@H]1CN(c2ccc(-c3ccc(Cl)cc3C[C@@H](C(=O)[*:2])N(C)[*:1])cc2)CCN1C; X140 = CN([C@@H](Cc1cc(Cl)ccc1-c1ccc(Oc2cccnc2)cc1)C(=O)[*:2])[*:1]; NMehhhLys(Me) = CN([C@@H](CCCCCCCN(C)[*:3])C(=O)[*:2])[*:1]; X29 = CN([C@@H](Cc1cc(Cl)ccc1-c1cn[nH]c1)C(=O)[*:2])[*:1]; X44 = Cc1nnc(-c2ccc(Cl)cc2C[C@@H](C(=O)[*:2])N(C)[*:1])o1; NMe(hhhLys) = CN([C@@H](CCCCCCCN[*:3])C(=O)[*:2])[*:1]; cBuCO(3,3-F2-1-CF3) = O=C(C1(C(F)(F)F)CC(F)(F)C1)*; Pro(trans-4-F) = O=C(O)[C@@H]1C[C@@H](F)CN1; Gly(cPr) = N[C@H](C(=O)O)C1CC1

compound: CC(C)C[C@@H]1NC(=O)[C@@H](N(C)C(=O)[C@@H](NC(=O)[C@@H]2C[C@@H](F)CN2C(=O)C2(C(F)(F)F)CC(F)(F)C2)C2CC2)CCCC=CCCNC(=O)[C@H](Cc2cc(Cl)ccc2-c2cnn(C3CC3)c2)N(C)C1=O [Example 287]
GI50 (nM): 40

compound: CC(C)C[C@@H]1NC(=O)[C@@H](N(C)C(=O)[C@@H](NC(=O)[C@@H]2C[C@@H](F)CN2C(=O)C2(C(F)(F)F)CC(F)(F)C2)C2CC2)CCCCCCCN(C)C(=O)[C@H](Cc2cc(Cl)ccc2-c2ccc(Oc3cccnc3)cc2)N(C)C1=O [Example 385] ({cBuCO(3,3-F2-1-CF3)}-[Pro(trans-4-F)][Gly(cPr)][NMehhhLys(Me)]L[X140]; lactam 3-C)
GI50 (nM): 30

compound: CC(C)C[C@@H]1NC(=O)[C@@H](N(C)C(=O)[C@@H](NC(=O)[C@@H]2C[C@@H](F)CN2C(=O)C2(C(F)(F)F)CC(F)(F)C2)C2CC2)CCCCCCCN(C)C(=O)[C@H](Cc2cc(Cl)ccc2-c2ccc(N3CCN(C)[C@@H](C)C3)cc2)N(C)C1=O [Example 409] ({cBuCO(3,3-F2-1-CF3)}-[Pro(trans-4-F)][Gly(cPr)][NMehhhLys(Me)]L[X1]; lactam 3-C)
GI50 (nM): 10

compound: CC(C)C[C@@H]1NC(=O)[C@@H](N(C)C(=O)[C@@H](NC(=O)[C@@H]2C[C@@H](F)CN2C(=O)C2(C(F)(F)F)CC(F)(F)C2)C2CC2)CCCCCCCN(C)C(=O)[C@H](Cc2cc(Cl)ccc2-c2cn[nH]c2)N(C)C1=O [Example 167] ({cBuCO(3,3-F2-1-CF3)}-[Pro(trans-4-F)][Gly(cPr)][NMehhhLys(Me)]L[X29]; lactam 3-C)
GI50 (nM): 10

compound: CC(C)C[C@@H]1NC(=O)[C@@H](N(C)C(=O)[C@@H](NC(=O)[C@@H]2C[C@@H](F)CN2C(=O)C2(C(F)(F)F)CC(F)(F)C2)C2CC2)CCCCCCCN(C)C(=O)[C@H](Cc2cc(Cl)ccc2-c2ccc(N3C[C@H]4COC[C@H]4C3)cc2)N(C)C1=O [Example 363] ({cBuCO(3,3-F2-1-CF3)}-[Pro(trans-4-F)][Gly(cPr)][NMehhhLys(Me)]L[X38]; lactam 3-C)
GI50 (nM): 10

compound: Cc1nnc(-c2ccc(Cl)cc2C[C@H]2C(=O)NCCCCCCC[C@H](N(C)C(=O)[C@@H](NC(=O)[C@@H]3C[C@@H](F)CN3C(=O)C3(C(F)(F)F)CC(F)(F)C3)C3CC3)C(=O)N[C@@H](CC(C)C)C(=O)N2C)o1 [Example 160] ({cBuCO(3,3-F2-1-CF3)}-[Pro(trans-4-F)][Gly(cPr)][NMe(hhhLys)]L[X44]; lactam 3-C)
GI50 (nM): 20
